biological target: IL-4 (Homo sapiens, UniProt P05112); assay: Immunoassay binding test, IL-4; conditions: 100 μM
Sequence (P05112 25-153, species assumed): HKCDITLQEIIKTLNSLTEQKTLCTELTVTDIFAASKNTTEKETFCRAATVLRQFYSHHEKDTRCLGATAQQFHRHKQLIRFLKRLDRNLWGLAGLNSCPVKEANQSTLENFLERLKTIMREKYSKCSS
endpoint: BINDING IL4 % Neutra at 100 μM (%)

CN(CCCN(Cc1ccncc1)Cc1cn(-c2cccc(C(F)(F)F)c2)c2ccccc12)C1CCCCC1
98.4
CN(CCCCN(Cc1cccnc1)Cc1cn(-c2cccc(C(F)(F)F)c2)c2ccccc12)C1CCCCC1
98.1
O=S(=O)(c1ccccc1)n1cc(CN(CCNC2CCCCC2)Cc2cccnc2)c2ccccc21
94.6
FC(F)(F)c1cccc(-n2cc(CN(CCNC3CCCCC3)Cc3cccnc3)c3ccccc32)c1
97.3
CN(CCCN(Cc1ccncc1)Cc1cn(S(=O)(=O)c2ccccc2)c2ccccc12)C1CCCCC1
97.6
FC(F)(F)c1cccc(-n2cc(CN(CCNC3CCCCC3)Cc3ccncc3)c3ccccc32)c1
96.4
CCCN(CCCCN(Cc1cccnc1F)Cc1cn(S(=O)(=O)c2ccccc2)c2ccccc12)C1CCCC1
93.4
O=S(=O)(c1ccccc1)n1cc(CN(CCCCNC2CCC2)Cc2cccnc2F)c2ccccc21
93.6
FC(F)(F)c1cccc(-n2cc(CN(Cc3ccncc3)CC3CCCN(C4CCCCC4)C3)c3ccccc32)c1 (stereo not drawn)
95.7
O=S(=O)(c1ccccc1)n1cc(CN(CCCCNC2CCCCC2)Cc2cn(S(=O)(=O)c3ccccc3)c3ccccc23)c2ccccc21
95.6
CN(CCCCN(Cc1ccncc1)Cc1cn(-c2cccc(C(F)(F)F)c2)c2ccccc12)C1CCCCC1
98.8
CCCN(CCOCCN(Cc1cccnc1F)Cc1cn(S(=O)(=O)c2ccccc2)c2ccccc12)C1CCCC1 [Compound 106]
84.1
CN(CCCCN(Cc1ccn(S(=O)(=O)c2ccccc2)c1)Cc1cccnc1F)C1CCCCC1
87.5
O=S(=O)(c1ccccc1)n1cc(CN(CCCNC2CCCCC2)Cc2cccnc2)c2ccccc21
97.3
CN(CCOCCN(Cc1cccnc1F)Cc1cn(S(=O)(=O)c2ccccc2)c2ccccc12)C1CCCC1 [Compound 104]
88.2
CN(CCCCN(Cc1ccnc(F)c1)Cc1cn(S(=O)(=O)c2ccccc2)c2ccccc12)C1CCCCC1
90.6
CN1CCN(S(=O)(=O)n2cc(CN(CCCCN(C)C3CCCCC3)Cc3cccnc3F)c3ccccc32)CC1
92.3
CN(CCCCN(Cc1cccnc1)Cc1cn(S(=O)(=O)c2ccccc2)c2ccccc12)C1CCCCC1
97.9
Fc1cc(CN(Cc2cn(-c3cccc(C(F)(F)F)c3)c3ccccc23)CC2CCCN(C3CCCCC3)C2)ccn1 (stereo not drawn)
99.5
O=S(=O)(c1ccccc1)n1cc(CN(CCCCNC2CCCCC2)Cc2cccnc2F)c2ccccc21
93.2
FC(F)(F)c1cccc(-n2cc(CN(CCCCNC3CCCCC3)Cc3cccnc3)c3ccccc32)c1
98
